- Test system: replicating M. tuberculosis H37Rv
- procedure-text: microbe, parasite or virus in culture
- Format: cell-based
- applied-conditions: Mycobacterium tuberculosis, H37RV, three independent experiments in triplicate, read-out: TB Growth Inhibition Activity, IC90 Replicating_logarithmic (converted)
# IC90 per record follows
Write the answer as a number in µM, unit excluded.

# annotated cases, reported IC90 shown
molecule=c1ccc(-n2cc(CSc3nnc(C4CCCC4)o3)nn2)cc1 numeric_result=62
molecule="c1ccc(-c2nnc(SCc3cccnc3)o2)cc1 [drawing 143]" numeric_result=125
molecule=Cc1cccc(CSc2nnc(-c3ccccc3)o2)c1 numeric_result=125

Attention now shifts to the item below.
Give its IC90 value. Item: `c1ccc(-c2nnc(SCc3cscn3)o2)cc1`
62
